Origin of values: ChEMBL document CHEMBL1201862

Tested on: OVCAR-3
method.notes: NCI tumour cell line growth inhibition, 48 h
Activity calls are given as the source filed them. No stated cut-off is given here; in the data, active = GI50 up to about 1.1 µM and inactive = higher.
Overview of reported GI50 across a group of compounds:

> print(dat)
                                   compound  parameter      recorded.result
1  Cc1cc2c(s1)C(N)CC2=O (stereo unspecified)       GI50  > 100 µM (inactive)
2  O=C1CCC(c2nc3cc(Cl)ccc3o2)C(=O)N1 (stereo unspecified)       GI50  > 100 µM (inactive)
3  CC(=O)Nc1ccccc1[S+]([O-])c1ccccc1 (stereo unspecified)       GI50  > 100 µM (inactive)
4  COc1ccccc1NC(=O)C1=C(C)NC(C)=C(C(=O)Nc2ccccc2OC)C1c1ccc(C2C(C(=O)Nc3ccccc3OC)=C(C)NC(C)=C2C(=O)Nc2ccccc2OC)cc1       GI50   2.29 µM (inactive)

Recorded GI50 for `O=C(CCc1ccccc1)ON1C(=S)C(c2ccccc2)(c2ccccc2)N=C1Sc1ccccc1` with OVCAR-3, please?
60 µM (inactive)

Recorded GI50 for `O=C(O)c1cc(-c2ccccc2O)nc2ccccc12` with OVCAR-3, please?
> 100 µM (inactive)

====

Overview of reported GI50 across a group of molecules:
System: HOP-92
method.notes: NCI tumour cell line growth inhibition, 48 h
Active and inactive are the calls of the source. No stated cut-off is given here; in the data, active = GI50 up to about 1.1 µM and inactive = higher.

> print(dat)
                                   molecule  study.target      recorded.result
1  CC1(C)C2C=CC1C(=O)CC2 (stereo not drawn)        HOP-92  > 100 µM (inactive)

GET /values?readout=GI50&item= O=C(CCBr)N1CCN(C(=O)CCBr)CC1 [PIPOBROMAN]
126 µM (inactive)

GET /values?readout=GI50&item= `Cc1ccc(NC(=O)CC(=O)n2nc(-c3ccccc3)c(/N=N/c3ccccc3C(=O)O)c2-c2ccccc2)cc1`
> 100 µM (inactive)

GET /values?readout=GI50&item= OCC1CCCCN1Cc1nc2cc(Cl)ccc2[nH]1 (stereo not drawn)
> 100 µM (inactive)

GET /values?readout=GI50&item= `Oc1[nH]c(Nc2ccc(Cl)cc2)nc2ncnc1-2`
81.3 µM (inactive)

GET /values?readout=GI50&item= `Oc1cc(N2CCCC2)ccc1/C=N/N1C(=S)N(c2ccccc2)C(=N\c2ccccc2)/C1=N/c1ccccc1`
63.2 µM (inactive)

GET /values?readout=GI50&item= `O=S(=O)(c1ccc2ccccc2c1)N1CCN(S(=O)(=O)c2ccc3ccccc3c2)CC1`
34.6 µM (inactive)

GET /values?readout=GI50&item= `C(#CC1(Nc2ccccc2)CCN(Cc2ccccc2)CC1)C1(Nc2ccccc2)CCN(Cc2ccccc2)CC1`
4.95 µM (inactive)

====

Test system: SK-MEL-2
method.notes: NCI tumour cell line growth inhibition, 48 h
Activity calls are given as the source filed them. Cut-off read from the data, not from the text of the source: active = GI50 up to about 1.1 µM and inactive = higher.
Valid outcomes are listed here; reply with one: active, inactive

Sample answers from the record:
> print(dat)
                                   molecule  study.target  category
1  COc1cc(/C=C/C(=O)OC[C@H](Br)[C@H](OC(C)=O)c2ccc3c(c2)OCO3)cc(OC)c1OC      SK-MEL-2  inactive
2          O=C(O)c1cc(-c2ccccc2O)nc2ccccc12      SK-MEL-2  inactive
3  Nc1ccc(/N=N/c2c(S(=O)(=O)O)cc3ccccc3c2S(=O)(=O)O)cc1      SK-MEL-2  inactive
4  O=C(NNC(=S)Nc1ccccc1)c1ccccc1Nc1ccccc1C(=O)NNC(=S)Nc1ccccc1      SK-MEL-2  inactive

I'd appreciate the recorded outcome for `O=C(CCc1nnc2s/c(=C\c3ccc([N+](=O)[O-])cc3)c(=O)n12)Nc1ccc(Cl)c(Cl)c1` from this test.
inactive

I'd appreciate the recorded outcome for Cc1cn(C2CC(N=[N+]=[N-])C(CO)O2)c(=O)n(CCCCBr)c1=O (stereo not given) from this test.
inactive

I'd appreciate the recorded outcome for Clc1cccc(Cl)c1C1SCc2nc3ncccc3n21 (stereo not given) from this test.
inactive

I'd appreciate the recorded outcome for `O=C1CN2Cc3cc(N4CCOCC4)ccc3N=C2N1` from this test.
inactive

I'd appreciate the recorded outcome for `COc1cc(/C=N/NC(=O)c2ccc(NC(C)=O)cc2OC)ccc1O` from this test.
inactive

I'd appreciate the recorded outcome for `C[C@]12CCC(=O)C=C1CC[C@@H]1[C@@H]2[C@@H](O)C[C@@]2(C)[C@H]1CC[C@]2(O)C(=O)COC(=O)COCC(=O)O` from this test.
inactive

I'd appreciate the recorded outcome for CC1OC(OC2C(O)C(O)C(O)C(O)C2O)C(N)CC1NC(=N)C(=O)O (stereo not given) from this test.
inactive

====

Overview of reported GI50 across a group of compounds:
System: A549
method.notes: NCI tumour cell line growth inhibition, 48 h
Activity calls are given as the source filed them. Rule as the data show it: active = GI50 up to about 1.1 µM and inactive = higher.

A selection of reference data follows.
> print(dat)
                                   compound  study.target  parameter      recorded.result
1  Cc1ccc(/N=N/c2c(O)ccc3cc(S(=O)(=O)O)ccc23)c(C)c1          A549       GI50  > 100 µM (inactive)
2  COc1cc(C2=N/C(=C/c3cccs3)C(=O)O2)cc(OC)c1OC          A549       GI50  > 100 µM (inactive)
3  COC(=O)C(CCc1ccccc1I)C1=CCC2(CC1)OCCO2 (stereo unspecified)          A549       GI50     31 µM (inactive)
4  COC(=O)[C@@H]1CO[C@H](C(C)(C)C)N1C(=O)N1C=CC(=O)C[C@H]1C          A549       GI50  > 100 µM (inactive)

GET /values?readout=GI50&item= `CCN(CC)CCCNC(=O)c1ccccc1Nc1c(Cl)cccc1Cl`
15.7 µM (inactive)

GET /values?readout=GI50&item= CC1(C)Oc2ccc3c(=O)cc(-c4cccs4)oc3c2C1C(=O)O (stereo unspecified)
> 100 µM (inactive)

GET /values?readout=GI50&item= `COc1c(N2CCCCC2)c2c(=O)c3ccccc3oc2c2cc(C)oc12`
18.2 µM (inactive)

GET /values?readout=GI50&item= `Nc1c2ccccc2nc2ccc3c(=O)cc(-c4ccccc4)oc3c12`
1.4 µM (inactive)

====

Test system: EKVX
method.notes: NCI tumour cell line growth inhibition, 48 h
Active and inactive are the calls of the source. No stated cut-off is given here; in the data, active = GI50 up to about 1.1 µM and inactive = higher.
Valid outcomes are listed here; reply with one: y for active, n for inactive

Sample answers from the record:
> print(dat)
                                   compound  category
1  N#CCCN(C(=O)Nc1ccc(NC(=O)N(CCC#N)c2ccccc2)cc1)c1ccccc1         n
2  Nc1nc(N)c2c3c(cnc2n1)CC(c1ccccc1)CC3 (stereo unspecified)         n
3  CC(C)OP(=O)(OC(C)C)/C(=N/Nc1ccc([N+](=O)[O-])cc1)NNC(=O)c1ccccc1         n
4     COc1ccc(C(=O)c2cc(OC)c(OC)c(OC)c2)cc1         y
5  CC(C)=CCC/C(C)=C/CC/C(C)=C/CC/C(C)=C/C=C/C=C(\C)CC/C=C(\C)CC/C=C(\C)CCC=C(C)C         n

I'd appreciate the recorded outcome for `c1ccc(C2=NCCN2)c(C2=NCCN2)c1` from this test.
n

I'd appreciate the recorded outcome for CC(C)=CCN1c2ccccc2NC(=O)CC1C (stereo unspecified) from this test.
n

I'd appreciate the recorded outcome for `Cc1sc2nc3n(c(=O)c2c1C)N=C(c1ccccc1)CS3` from this test.
n

I'd appreciate the recorded outcome for `CCOC(=O)c1c2c(n3ccccc13)C(=O)c1ccccc1C2=O` from this test.
n

I'd appreciate the recorded outcome for `COC(=O)/C(=C1\OC(=O)C(c2ccc(Cl)cc2)=C1O)c1ccc(Cl)cc1` from this test.
n

I'd appreciate the recorded outcome for `Cc1nc2ccc(Cl)cc2c2c1CCN2c1ccc(F)cc1` from this test.
n

====

Tested on: TK-10
method.notes: NCI tumour cell line growth inhibition, 48 h
The source made the active and inactive calls. Cut-off read from the data, not from the text of the source: active = GI50 up to about 1.1 µM and inactive = higher.
Valid outcomes are listed here; reply with one: active, inactive

Sample answers from the record:
> print(dat)
                                   compound  study.target  category
1  O=C(C/C(CCC(=O)N(Cc1ccccc1)Cc1ccccc1)=N/Nc1ccc([N+](=O)[O-])cc1[N+](=O)[O-])c1ccccc1         TK-10  inactive
2  CCC(=O)OC1=C(c2ccccc2)Sc2ccc(Cl)cc2-n2cccc21         TK-10  inactive
3        CC(C)(CN1CCCCC1)C(=O)/C=C/c1ccccc1         TK-10  inactive

I'd appreciate the recorded outcome for `CC(C)OP(=O)(OC(C)C)/C(=N/Nc1ccc([N+](=O)[O-])cc1)NNC(=O)c1ccccc1` from this test.
inactive

I'd appreciate the recorded outcome for `O=C(c1ccc2c3c(ccc(C(=O)C(F)(F)F)c13)CC2)C(F)(F)F` from this test.
inactive

I'd appreciate the recorded outcome for `CC(=O)N(C)OC(=O)CC(=O)c1ccccc1` from this test.
inactive

I'd appreciate the recorded outcome for `COc1ccc(-c2cc(-c3ccco3)c(C#N)c(=O)[nH]2)cc1` from this test.
inactive

I'd appreciate the recorded outcome for CCOC(=O)CNc1nnnn1C1OC(CO)C(O)C1O (stereo unspecified) from this test.
inactive

I'd appreciate the recorded outcome for N#CC1Sc2ccccc2-n2cccc21 (stereo unspecified) from this test.
inactive

I'd appreciate the recorded outcome for `CC(C)=CC[C@]12CCN(C)[C@H]1N(S(=O)(=O)c1ccccc1)c1ccccc12` from this test.
inactive

I'd appreciate the recorded outcome for `COc1ccc(C(=O)/C=C/c2cc(O)c(O)c(F)c2F)c(OC)c1` from this test.
inactive

I'd appreciate the recorded outcome for `O=S1(=O)c2ccccc2C(=NO)c2ccccc21` from this test.
inactive

I'd appreciate the recorded outcome for `O=c1cc(CC(O)(C(F)(F)Cl)C(F)(F)Cl)[nH]n1-c1ccccc1` from this test.
inactive

I'd appreciate the recorded outcome for `COc1cc2c(c(OC)c1O)-c1ccc(OC)c(=O)cc1[C@@H](NC(=O)C(F)(F)F)CC2` from this test.
inactive

I'd appreciate the recorded outcome for `CC[C@@]1(O)C(=O)OCc2c1cc1n(c2=O)Cc2c-1nc1ccc(N)cc1c2CC[Si](C)(C)C` from this test.
active

I'd appreciate the recorded outcome for Cc1cc(N(CC(C)Br)CC(C)Br)ccc1/N=N/c1ccccc1C(=O)O (stereo unspecified) from this test.
inactive

I'd appreciate the recorded outcome for `CS(=O)(=O)CSCSSCS(C)(=O)=O` from this test.
inactive

I'd appreciate the recorded outcome for `COc1ccc(CNc2nc3ccccc3nc2-c2cccs2)cc1OC` from this test.
inactive

I'd appreciate the recorded outcome for [N-]=[N+]=NC(c1cn(C2CC(O)C(CO)O2)c(=O)[nH]c1=O)C(Cl)I (stereo unspecified) from this test.
inactive

I'd appreciate the recorded outcome for `O=C1CN2Cc3cc(N4CCOCC4)ccc3N=C2N1` from this test.
inactive

I'd appreciate the recorded outcome for COc1cc(/C=C/C(=O)CC(=O)/C=C/c2ccc(OC(=O)CCCCC3CCSS3)c(OC)c2)ccc1OC(=O)CCCCC1CCSS1 (stereo unspecified) from this test.
inactive
